Tested on: ICR (CD-1) mice
Experiment: In vivo toxicity in mice (SC, IN, IP routes)
Details: IP, 3 doses (1hr, 12hr, 24hr); RN7-IN10, RN7-IN8 20 mg/kg; RN7-IN9, RN7-IN6 10 mg/kg; day 7; mean±SD, 4 mice

SUBSTANCE: FLGGLIKWWPWRR-NH2 [RN7-IN6, hybrid peptide of ranalexin (residues 1-7) and indolicidin (residues 8-13)]
Mean corpuscular haemoglobin, MCH: 16.67 ± 1.07 pg
--
SUBSTANCE: FLGGLIKWPWWPWRR-NH2 [RN7-IN8, hybrid peptide of ranalexin (residues 1-7) and indolicidin (residues 6-13)]
Mean corpuscular haemoglobin, MCH: 17.92 ± 0.56 pg
--
SUBSTANCE: FLGGLIKKWPWWPWRR-NH2 [RN7-IN9, hybrid peptide of ranalexin (residues 1-7) and indolicidin (residues 5-13)]
Mean corpuscular haemoglobin, MCH: 17.25 ± 0.78 pg
--
SUBSTANCE: FLGGLIKWKWPWWPWRR-NH2 [RN7-IN10, hybrid peptide of ranalexin (residues 1-7) and indolicidin (residues 4-13)]
Mean corpuscular haemoglobin, MCH: 17.6 ± 0.46 pg
